Tested on: FXR:RXRa (NR concentration 270 nM, RXRa partner concentration 90 nM)
Assay: PBM binding z-score (relative to random genomic background probes); higher = stronger binding; sequences stand for … in GC…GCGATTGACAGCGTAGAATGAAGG
READOUT: PBM binding z-score
Please respond with just the number, no unit label.

Record excerpt, results attached:
1) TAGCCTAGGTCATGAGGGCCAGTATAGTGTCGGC 3.91
2) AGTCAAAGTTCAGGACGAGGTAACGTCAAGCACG 4.26
3) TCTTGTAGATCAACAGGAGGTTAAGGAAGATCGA 0.186
4) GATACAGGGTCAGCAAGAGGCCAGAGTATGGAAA 4.96
5) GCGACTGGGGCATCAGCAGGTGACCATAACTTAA -0.501

Provide value of PBM binding z-score for this record tested with FXR:RXRa (NR concentration 270 nM, RXRa partner concentration 90 nM): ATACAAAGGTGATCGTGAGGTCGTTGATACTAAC 2.64

Please give the result for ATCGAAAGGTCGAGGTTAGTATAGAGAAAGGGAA too. 3.77

// repeat for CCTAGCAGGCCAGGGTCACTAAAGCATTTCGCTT and report 1.78

Now this one: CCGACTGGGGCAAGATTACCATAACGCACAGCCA -0.454

Now consider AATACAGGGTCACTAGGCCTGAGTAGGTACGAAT and answer again. 6.29

What do you get for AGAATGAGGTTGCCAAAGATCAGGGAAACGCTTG ? 0.0162

Item: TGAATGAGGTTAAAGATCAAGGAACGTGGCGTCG 3.35

###

Entries and their measured PBM binding z-score follow.
Tested on: PXR:RXRa (NR concentration 270 nM, RXRa partner concentration 90 nM)
Assay: PBM binding z-score (relative to random genomic background probes); higher = stronger binding; sequences stand for … in GC…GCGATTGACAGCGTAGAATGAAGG
Number only, please.

Example entries begin here.
1) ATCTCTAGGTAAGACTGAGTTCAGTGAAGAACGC 2.66
2) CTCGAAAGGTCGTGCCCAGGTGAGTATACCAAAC 3.17
3) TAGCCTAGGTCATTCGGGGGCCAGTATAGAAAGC 3.84
4) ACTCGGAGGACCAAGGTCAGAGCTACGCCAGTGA 1.34
5) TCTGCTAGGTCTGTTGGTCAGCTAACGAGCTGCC -0.467
6) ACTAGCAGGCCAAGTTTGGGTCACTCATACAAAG 0.707

Which measured PBM binding z-score value corresponds to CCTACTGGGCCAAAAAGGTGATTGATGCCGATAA ? -0.0996

How about this sequence: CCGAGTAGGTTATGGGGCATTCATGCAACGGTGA 0.114

Entry to check: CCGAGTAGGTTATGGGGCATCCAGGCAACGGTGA -0.0112

Again, but for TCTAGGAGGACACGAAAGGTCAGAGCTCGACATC 4.08

Same for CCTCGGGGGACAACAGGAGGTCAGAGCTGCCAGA 2.74

###

Test system: PPARg DBDmut IVT, anti-PPARg (DBD mutation: PPARg1 K132A/R137A, NR concentration 270 nM)
Assay: PBM binding z-score (relative to random genomic background probes); higher = stronger binding; sequences stand for … in GC…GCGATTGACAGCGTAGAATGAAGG
Hi, to clarify the labels: Y covers PBM binding z-score from 0.7 upward, N covers anything below 0.7.

The examples below pair each entry with its known result.
1. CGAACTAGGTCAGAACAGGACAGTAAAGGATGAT Y
2. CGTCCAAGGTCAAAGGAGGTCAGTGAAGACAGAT N
3. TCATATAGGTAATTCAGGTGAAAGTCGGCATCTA Y

Dear colleague, could you confirm whether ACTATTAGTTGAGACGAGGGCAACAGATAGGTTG has PBM binding z-score at or above 0.7? Y

Next entry: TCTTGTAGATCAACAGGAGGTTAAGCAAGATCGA Y

Same thing, different sequence: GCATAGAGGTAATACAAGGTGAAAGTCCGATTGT N

Field entry: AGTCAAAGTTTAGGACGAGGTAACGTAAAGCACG N

Ok, now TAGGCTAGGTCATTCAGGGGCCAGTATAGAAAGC N

Please answer likewise for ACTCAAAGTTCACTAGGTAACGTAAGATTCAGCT Y

Then what about the sequence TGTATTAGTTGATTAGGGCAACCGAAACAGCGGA ? Y
